target: Peptidyl-prolyl cis-trans isomerase A (Homo sapiens); assay: Inhibition of CypA (unknown origin) assessed as peptidyl-prolyl cis-trans isomerase activity using N-succinyl-Ala-Ala-Pro-Phe-p-nitroanilide as substrate by spectrophotometry; settings: read-out: IC50
pIC50: −log10 of the molar value.
measured.endpoint: pIC50

(a) O=C(NC(=O)c1c(O)cccc1O)NC1c2ccccc2C2CCCCC21 (racemic)
(b) O=C(NC(=O)c1c(O)cccc1O)NC1c2ccccc2-c2cc(Cl)ccc21 (configuration not stated)
Query: For the two items a and b , which reports the higher pIC50 value? Answer by quoting the chosen item's label.
Result: b
(b: 5.91, a: 5.00)

(1) O=C(NCc1ccccc1F)NC1c2ccccc2-c2ccccc21
(2) O=C(NC(=O)c1c(O)cccc1O)NC1c2ccccc2-c2cc(F)ccc21 (configuration not stated)
(3) O=C(NC(=O)c1c(O)cccc1O)NC1c2ccccc2-c2cccc(F)c21 (configuration not stated)
Query: Task field, ranking: reported pIC50, descending order. Output spec: labels arranged per the requested ranking.
Result: 3, 2, 1

* * *

test: Retention time of the compound by HPLC analysis; format: physicochemical
measured.endpoint: Retention_time (min)

Cc1ccc2c(c1)-c1ccccc1C2NC(=O)NC(=O)c1ccccc1F (stereo not drawn) ... 8.84
O=C(NC(=O)c1c(O)cccc1O)NC1c2ccccc2-c2cc3ccccc3cc21 (stereo not drawn) ... 5.07
O=C(NC(=O)c1ccccc1F)NC1c2ccccc2-c2cc(Cl)ccc21 (stereo not drawn) ... 6.6
O=C(NC(=O)c1c(O)cccc1O)NC1c2ccccc2-c2cc(F)ccc21 (stereo not drawn) ... 8.07
O=C(NC(=O)c1c(O)cccc1O)NC1c2ccccc2-c2cccc(F)c21 (stereo not drawn) ... 4.7

(I) O=C(NC(=O)c1c(O)cccc1O)NC1c2ccccc2-c2cc(C(F)(F)F)ccc21 (stereo not drawn)
(II) O=C(NC(=O)c1ccccc1F)NC1c2ccccc2C2CCCCC21 (racemic)
Query: Please compare: I and II . Report which one has the smaller Retention_time value. Answer by quoting the chosen item's label.
Result: I
(I: 5.68 min, II: 9.04 min)

* * *

Reported CC50 at 24 h values are given for each entry in this list.
experiment: Cytotoxicity against human RD cells after 24 hrs by WST-1 assay; format: cell-based

O=C(NC(=O)c1ccccc1F)NC1c2ccccc2C2CCCCC21 (racemic) ... > 25 µM
O=C(NC(=O)c1ccccc1F)NC1c2ccccc2-c2cc(F)ccc21 (configuration not stated) ... > 10 µM
O=C(NC(=O)c1ccccc1F)NC1c2ccccc2-c2cccc(F)c21 (configuration not stated) ... > 25 µM

Query: I would be grateful if you could share the reported CC50 at 24 h for Cc1ccc2c(c1)-c1ccccc1C2NC(=O)NC(=O)c1c(O)cccc1O (configuration not stated) .
Result: > 25 µM

Query: Next up: O=C(NCc1ccccc1F)NC1c2ccccc2-c2ccccc21
Result: > 25 µM

Query: Okay, and O=C(NC(=O)c1ccccc1F)NC1c2ccccc2-c2ccccc21 ?
Result: > 20 µM

Query: Now consider O=C(NC(=O)c1ccc(O)cc1O)NC1c2ccccc2-c2ccccc21 and answer again.
Result: > 25 µM

* * *

experiment: Retention time of the compound by HPLC analysis; type: physicochemical
measured.endpoint: Retention_time (min)

Cc1ccc2c(c1)-c1ccccc1C2NC(=O)NC(=O)c1c(O)cccc1O (stereo unspecified) ... 4.42
O=C(Cc1ccccc1F)NC(=O)NC1c2ccccc2-c2ccccc21 ... 6.05
O=C(NCc1c(O)cccc1O)NC1c2ccccc2-c2ccccc21 ... 5.37
O=C(NC(=O)c1cc(O)cc(O)c1)NC1c2ccccc2-c2ccccc21 ... 7.88
O=C(NC(=O)c1c(O)cccc1O)NC1c2ccccc2C2CCCCC21 (racemic) ... 5.41
O=C(NCc1ccccc1F)NC1c2ccccc2-c2ccccc21 ... 5.57

* * *

target: Peptidyl-prolyl cis-trans isomerase A (Homo sapiens, UniProt P62937); assay: Inhibition of CypA (unknown origin) assessed as peptidyl-prolyl cis-trans isomerase activity using N-succinyl-Ala-Ala-Pro-Phe-p-nitroanilide as substrate by spectrophotometry; conditions: read-out: IC50
Sequence (P62937 whole entry): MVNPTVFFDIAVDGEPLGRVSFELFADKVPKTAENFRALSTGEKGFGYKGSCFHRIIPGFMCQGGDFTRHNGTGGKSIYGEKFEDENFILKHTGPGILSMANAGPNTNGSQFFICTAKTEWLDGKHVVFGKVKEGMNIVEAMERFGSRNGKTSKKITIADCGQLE
pIC50: −log10 of the molar value.
measured.endpoint: pIC50

Cc1ccc2c(c1)-c1ccccc1C2NC(=O)NC(=O)c1c(O)cccc1O (configuration not stated) ... 4.93
Cc1ccc2c(c1)-c1ccccc1C2NC(=O)NC(=O)c1ccccc1F (configuration not stated) ... 5.00
O=C(Cc1ccccc1F)NC(=O)NC1c2ccccc2-c2ccccc21 ... 5.00
O=C(NC(=O)c1ccccc1F)NC1c2ccccc2C2CCCCC21 (racemic) ... 5.00
O=C(NC(=O)c1ccccc1F)NC1c2ccccc2-c2cc(Cl)ccc21 (configuration not stated) ... 4.97
O=C(NC(=O)c1cc(F)ccc1O)NC1c2ccccc2-c2ccccc21 ... 5.00
O=C(NC(=O)c1c(O)cccc1O)NC1c2ccccc2-c2cc3ccccc3cc21 (configuration not stated) ... 5.00
O=C(NC(=O)c1ccccc1F)NC1c2ccccc2-c2cccc(F)c21 (configuration not stated) ... 4.98
O=C(NC(=O)c1c(O)cccc1O)NC1c2ccc(F)cc2-c2ccc(F)cc21 (configuration not stated) ... 4.99
O=C(NC(=O)c1ccccc1F)NC1c2ccccc2-c2cc(F)ccc21 (configuration not stated) ... 4.99
O=C(NC(=O)c1ccc(O)cc1O)NC1c2ccccc2-c2ccccc21 ... 5.00
O=C(NCc1c(O)cccc1O)NC1c2ccccc2-c2ccccc21 ... 5.00

* * *

test: Retention time of the compound by HPLC analysis; assay type: physicochemical
measured.endpoint: Retention_time (min)

Study these solved cases before continuing.
O=C(NC(=O)c1c(O)cccc1O)NC1c2ccc(F)cc2-c2ccc(F)cc21 (stereo unspecified) ... 4.94
O=C(NC(=O)c1ccccc1F)NC1c2ccccc2-c2cccc(F)c21 (stereo unspecified) ... 6.02
O=C(NC(=O)c1c(O)cccc1O)NC1c2ccccc2-c2cc(Cl)ccc21 (stereo unspecified) ... 4.19
O=C(NC(=O)c1ccccc1F)NC1c2ccccc2-c2cc(F)ccc21 (stereo unspecified) ... 6.15

(A) O=C(NC(=O)c1ccc(O)cc1O)NC1c2ccccc2-c2ccccc21
(B) O=C(NC(=O)c1cc(F)ccc1O)NC1c2ccccc2-c2ccccc21
Query: Which value of Retention_time is numerically greater: that of A or that of B ? Answer with the label corresponding to your selection.
Result: B

* * *

# CC50 at 24 h per record follows
assay: Cytotoxicity against human RD cells after 24 hrs by WST-1 assay; format: cell-based

Worked examples follow.
O=C(NC(=O)c1cc(F)ccc1O)NC1c2ccccc2-c2ccccc21 ... > 25 µM
O=C(Cc1ccccc1F)NC(=O)NC1c2ccccc2-c2ccccc21 ... > 50 µM
O=C(NC(=O)c1c(O)cccc1O)NC1c2ccccc2-c2ccccc21 ... > 20 µM
O=C(NC(=O)c1c(O)cccc1O)NC1c2ccccc2C2CCCCC21 (racemic) ... > 25 µM
O=C(NC(=O)c1c(O)cccc1O)NC1c2ccccc2-c2cc(F)ccc21 (stereo not given) ... > 25 µM
O=C(NC(=O)c1cc(O)cc(O)c1)NC1c2ccccc2-c2ccccc21 ... > 25 µM
O=C(NC(=O)c1c(O)cccc1O)NC1c2ccccc2-c2cc(Cl)ccc21 (stereo not given) ... > 25 µM
O=C(NCc1c(O)cccc1O)NC1c2ccccc2-c2ccccc21 ... > 25 µM

Query: Data request, read-out CC50 at 24 h, for O=C(NC(=O)c1c(O)cccc1O)NC1c2ccccc2-c2cc(C(F)(F)F)ccc21 (stereo not given)
Result: > 25 µM

Query: Queued: O=C(NC(=O)c1c(F)cccc1F)NC1c2ccccc2-c2ccccc21
Result: > 20 µM

Query: One more molecule: Cc1ccc2c(c1)-c1ccccc1C2NC(=O)NC(=O)c1ccccc1F (stereo not given)
Result: > 10 µM

Query: O=C(NC(=O)c1c(O)cccc1O)NC1c2ccccc2-c2cccc(F)c21 (stereo not given) , same question.
Result: > 25 µM

Query: Also O=C(NC(=O)c1c(O)cccc1O)NC1c2ccccc2-c2cc3ccccc3cc21 (stereo not given) ?
Result: > 25 µM

Query: Also O=C(NC(=O)c1c(O)cccc1O)NC1c2ccc(F)cc2-c2ccc(F)cc21 (stereo not given) ?
Result: > 25 µM

Query: Also need O=C(NC(=O)c1ccccc1F)NC1c2ccccc2-c2cc(Cl)ccc21 (stereo not given) , thanks.
Result: > 25 µM
